target: 5-HT1A (h), human recombinant (CHO cells) (Homo sapiens, UniProt P08908); construct: expressed in transfected cells; host or cells: CHO cells; experiment: Cellular functional assay 5-HT1A (h) agonism; type: cell-based; settings: compound 1×10^−6 M; control 100 nM 8-OHDPAT
Sequence (P08908 whole entry): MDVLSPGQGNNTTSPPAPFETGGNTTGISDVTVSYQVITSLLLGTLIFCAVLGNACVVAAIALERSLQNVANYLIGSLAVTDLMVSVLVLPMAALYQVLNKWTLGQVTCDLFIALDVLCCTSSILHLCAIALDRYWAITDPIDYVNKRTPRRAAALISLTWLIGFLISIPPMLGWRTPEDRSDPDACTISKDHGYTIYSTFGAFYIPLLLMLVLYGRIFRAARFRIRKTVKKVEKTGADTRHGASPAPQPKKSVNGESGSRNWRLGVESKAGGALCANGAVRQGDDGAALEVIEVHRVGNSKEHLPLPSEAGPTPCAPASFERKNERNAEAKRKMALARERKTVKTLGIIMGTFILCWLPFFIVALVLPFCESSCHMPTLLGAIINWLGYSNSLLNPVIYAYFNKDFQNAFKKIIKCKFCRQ
quantity kind: 5-HT1A-ag [%] (%)
# output: bare number, implied unit %

Solved entries:
O=C1CCc2ccc(OCCCCN3CCN(c4cccc5c4ccn5Cc4cccc(Cl)c4)CC3)cc2N1 [Compound 67]; 23
O=C1CCc2ccc(OCCCCN3CCN(c4cccc5c4ccn5Cc4cccc(F)c4)CC3)cc2N1 [Compound 63]; 26
O=C1CCc2ccc(OCCCCN3CCN(c4cccc5c4ccn5S(=O)(=O)c4ccccc4)CC3)cc2N1 [Compound 24]; 69.7
NC(=O)c1ccccc1OCCCN1CCN(c2cccc3c2ccn3S(=O)(=O)c2ccccc2)CC1 [Compound 72]; 16
O=C1CCc2ccc(OCCCN3CCN(c4cccc5c4ccn5S(=O)(=O)c4ccccc4)CC3)cc2N1 [Compound 23]; 69
O=C1CCc2ccc(OCCCCN3CCN(c4cccc5c4ccn5Cc4ccccc4)CC3)cc2N1 [Compound 5]; 66

Lab note: next compound to report on.
# input Look up 5-HT1A-ag [%] of O=C1CCc2ccc(OCCCN3CCN(c4cccc5c4ccn5Cc4ccccc4)CC3)cc2N1 [Compound 4] and report it.
# output 63

---

target: 5-HT2A (h), human recombinant (HEK-293 cells) (Homo sapiens, UniProt P28223); construct: expressed in transfected cells; host or cells: HEK-293 cells; assay: Cellular functional assay 5-HT2A (h) agonism; assay type: cell-based; settings: compound 1×10^−6 M; control 10 μM serotonin
quantity kind: 5-HT2A-ag [%] (%)
Enter your answer as a number in %; do not include the unit.

Example entries and their recorded answers appear below.
O=C1CCc2ccc(OCCCCN3CCN(c4cccc5c4ccn5Cc4cccc(Cl)c4)CC3)cc2N1; 4
O=C1CCc2ccc(OCCCCN3CCN(c4cccc5c4ccn5Cc4ccccc4)CC3)cc2N1; 8
O=C1CCc2ccc(OCCCN3CCN(c4cccc5c4ccn5Cc4ccccc4)CC3)cc2N1; 2
O=C1CCc2ccc(OCCCCN3CCN(c4cccc5c4ccn5Cc4cccc(F)c4)CC3)cc2N1; 6

# ---- query molecule ----
# input Enter recorded 5-HT2A-ag [%] with 5-HT2A (h), human recombinant (HEK-293 cells) (Homo sapiens, UniProt P28223) for NC(=O)c1ccccc1OCCCN1CCN(c2cccc3c2ccn3S(=O)(=O)c2ccccc2)CC1 here.
# output 2

---

target: 5-HT7 receptor, human recombinant (Homo sapiens, UniProt P34969); assay: Binding assay, 5-HT7 receptor ([3H]LSD); details: read-out: Inhibition constant Ki 5-HT7
Sequence (P34969 whole entry): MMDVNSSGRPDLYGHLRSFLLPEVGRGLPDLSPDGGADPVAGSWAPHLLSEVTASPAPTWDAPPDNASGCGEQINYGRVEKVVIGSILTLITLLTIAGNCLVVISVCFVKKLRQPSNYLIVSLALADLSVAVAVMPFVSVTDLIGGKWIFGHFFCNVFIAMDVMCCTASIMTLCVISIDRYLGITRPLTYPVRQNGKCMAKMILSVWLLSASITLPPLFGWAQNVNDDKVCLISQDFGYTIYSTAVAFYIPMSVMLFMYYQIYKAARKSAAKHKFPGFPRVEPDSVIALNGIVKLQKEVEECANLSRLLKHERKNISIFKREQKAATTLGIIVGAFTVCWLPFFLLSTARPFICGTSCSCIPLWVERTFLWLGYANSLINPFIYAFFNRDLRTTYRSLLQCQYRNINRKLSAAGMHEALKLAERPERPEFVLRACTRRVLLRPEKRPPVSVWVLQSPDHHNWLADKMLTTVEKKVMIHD
quantity kind: Ki (nM)
Use nM as the unit, but write only the number.

# input Consider the compound O=C1CCc2ccc(OCCCCN3CCN(c4cccc5c4ccn5S(=O)(=O)c4ccccc4)CC3)cc2N1 . State its measured Ki.
# output 67

---

target: D2S (h), human recombinant (HEK-293 cells) (Homo sapiens); construct: expressed in transfected cells; host or cells: HEK-293 cells; test: Cellular functional assay D2S (h) agonism; format: cell-based; conditions: HEK293; compound 1×10^−6 M; control 3 μM dopamine; read-out: D2-ag [%]
Sequence (P14416 1-414 isoform P14416-2): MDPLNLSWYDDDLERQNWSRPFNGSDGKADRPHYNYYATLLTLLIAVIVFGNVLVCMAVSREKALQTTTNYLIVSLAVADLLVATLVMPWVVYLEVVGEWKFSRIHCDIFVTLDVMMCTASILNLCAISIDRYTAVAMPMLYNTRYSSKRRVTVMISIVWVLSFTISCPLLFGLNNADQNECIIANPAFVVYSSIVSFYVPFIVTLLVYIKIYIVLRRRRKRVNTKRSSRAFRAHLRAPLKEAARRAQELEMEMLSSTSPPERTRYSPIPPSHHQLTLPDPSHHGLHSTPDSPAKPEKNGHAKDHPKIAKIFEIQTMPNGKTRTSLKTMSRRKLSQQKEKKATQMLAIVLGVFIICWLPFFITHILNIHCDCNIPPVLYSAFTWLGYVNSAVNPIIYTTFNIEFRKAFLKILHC
quantity kind: activation at 1 µM (%)
All answers are understood in %, so give the number only.

Some solved cases for reference:
O=S(=O)(c1ccccc1)n1ccc2c(N3CCN(CCCOc4ccc5ccoc5c4)CC3)cccc21; 30
O=C1CCc2ccc(OCCCCN3CCN(c4cccc5c4ccn5Cc4cccc(Cl)c4)CC3)cc2N1; 46

# input Indicate the recorded activation at 1 µM value for this compound: O=C1CCc2ccc(OCCCCN3CCN(c4cccc5c4ccn5Cc4ccccc4)CC3)cc2N1
# output 47

# input Name the recorded activation at 1 µM of the compound listed here: NC(=O)c1ccccc1OCCCN1CCN(c2cccc3c2ccn3S(=O)(=O)c2ccccc2)CC1
# output 34

---

Target: α2C adrenergic receptors, human recombinant (CHO cells) (Homo sapiens, UniProt P18825)
Construct: expressed in transfected cells; host or cells: CHO cells
Sequence (P18825 1-462): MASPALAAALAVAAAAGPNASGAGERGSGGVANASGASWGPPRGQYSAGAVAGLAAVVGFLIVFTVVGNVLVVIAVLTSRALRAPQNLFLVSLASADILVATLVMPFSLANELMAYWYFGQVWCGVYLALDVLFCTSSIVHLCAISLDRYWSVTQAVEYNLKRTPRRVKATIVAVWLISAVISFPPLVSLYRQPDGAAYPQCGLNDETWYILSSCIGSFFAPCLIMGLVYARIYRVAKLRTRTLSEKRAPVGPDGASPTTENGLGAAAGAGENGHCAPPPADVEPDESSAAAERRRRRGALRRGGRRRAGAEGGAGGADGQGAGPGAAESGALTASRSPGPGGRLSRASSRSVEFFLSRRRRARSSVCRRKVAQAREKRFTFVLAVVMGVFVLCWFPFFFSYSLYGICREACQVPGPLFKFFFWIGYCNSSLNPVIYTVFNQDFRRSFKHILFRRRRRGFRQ
Assay: Binding assay, α2C adrenergic receptor ([3H]RX 821002)
Details: compound 1×10^−6 M
quantity kind: α2C [%] affinity test result
Write down the value, and be sure its unit follows.

Example entries and their recorded answers appear below.
O=C1CCc2ccc(OCCCCN3CCN(c4cccc5c4ccn5S(=O)(=O)c4ccccc4)CC3)cc2N1; 78%
O=C1CCc2ccc(OCCCCN3CCN(c4cccc5c4ccn5Cc4ccccc4)CC3)cc2N1; 93%
O=C1CCc2ccc(OCCCCN3CCN(c4cccc5c4ccn5Cc4cccc(Cl)c4)CC3)cc2N1; 97%

Okay, now this compound:
# input Supply recorded α2C [%] affinity test result for O=C1CCc2ccc(OCCCN3CCN(c4cccc5c4ccn5S(=O)(=O)c4ccccc4)CC3)cc2N1 here.
# output 32%

---

Listed compounds paired with reported 5-HT2A-antag [%]
target: 5-HT2A (h), human recombinant (HEK-293 cells) (Homo sapiens); construct: expressed in transfected cells; host or cells: HEK-293 cells; assay: Cellular functional assay 5-HT2A (h) antagonism; type: cell-based; settings: compound 1×10^−6 M; stimulus serotonin 100 nM
The answer should read as a number with its unit following.

Examples from the recorded data:
O=C1CCc2ccc(OCCCCN3CCN(c4cccc5c4ccn5Cc4ccccc4)CC3)cc2N1; 66%
NC(=O)c1ccccc1OCCCN1CCN(c2cccc3c2ccn3S(=O)(=O)c2ccccc2)CC1; 45%
O=C1CCc2ccc(OCCCCN3CCN(c4cccc5c4ccn5Cc4cccc(Cl)c4)CC3)cc2N1; 34%
O=C1CCc2ccc(OCCCCN3CCN(c4cccc5c4ccn5S(=O)(=O)c4ccccc4)CC3)cc2N1; 34.2%
O=C1CCc2ccc(OCCCCN3CCN(c4cccc5c4ccn5Cc4cccc(F)c4)CC3)cc2N1; 63%

# input Read off the recorded 5-HT2A-antag [%] for O=C1CCc2ccc(OCCCN3CCN(c4cccc5c4ccn5Cc4ccccc4)CC3)cc2N1
# output 17%

---

molecular target: hERG potassium channels (KCNH2 gene, expressed in CHO cells) (Homo sapiens); construct: expressed in transfected cells; host or cells: CHO cells; experiment: Ability to block hERG potassium channel, electrophysiology (IonWorks Quattro); assay type: cell-based; settings: read-out: Inhibition constants Ki for hERG potassium channels (column head H1 [nM])
Sequence (Q12809 whole entry): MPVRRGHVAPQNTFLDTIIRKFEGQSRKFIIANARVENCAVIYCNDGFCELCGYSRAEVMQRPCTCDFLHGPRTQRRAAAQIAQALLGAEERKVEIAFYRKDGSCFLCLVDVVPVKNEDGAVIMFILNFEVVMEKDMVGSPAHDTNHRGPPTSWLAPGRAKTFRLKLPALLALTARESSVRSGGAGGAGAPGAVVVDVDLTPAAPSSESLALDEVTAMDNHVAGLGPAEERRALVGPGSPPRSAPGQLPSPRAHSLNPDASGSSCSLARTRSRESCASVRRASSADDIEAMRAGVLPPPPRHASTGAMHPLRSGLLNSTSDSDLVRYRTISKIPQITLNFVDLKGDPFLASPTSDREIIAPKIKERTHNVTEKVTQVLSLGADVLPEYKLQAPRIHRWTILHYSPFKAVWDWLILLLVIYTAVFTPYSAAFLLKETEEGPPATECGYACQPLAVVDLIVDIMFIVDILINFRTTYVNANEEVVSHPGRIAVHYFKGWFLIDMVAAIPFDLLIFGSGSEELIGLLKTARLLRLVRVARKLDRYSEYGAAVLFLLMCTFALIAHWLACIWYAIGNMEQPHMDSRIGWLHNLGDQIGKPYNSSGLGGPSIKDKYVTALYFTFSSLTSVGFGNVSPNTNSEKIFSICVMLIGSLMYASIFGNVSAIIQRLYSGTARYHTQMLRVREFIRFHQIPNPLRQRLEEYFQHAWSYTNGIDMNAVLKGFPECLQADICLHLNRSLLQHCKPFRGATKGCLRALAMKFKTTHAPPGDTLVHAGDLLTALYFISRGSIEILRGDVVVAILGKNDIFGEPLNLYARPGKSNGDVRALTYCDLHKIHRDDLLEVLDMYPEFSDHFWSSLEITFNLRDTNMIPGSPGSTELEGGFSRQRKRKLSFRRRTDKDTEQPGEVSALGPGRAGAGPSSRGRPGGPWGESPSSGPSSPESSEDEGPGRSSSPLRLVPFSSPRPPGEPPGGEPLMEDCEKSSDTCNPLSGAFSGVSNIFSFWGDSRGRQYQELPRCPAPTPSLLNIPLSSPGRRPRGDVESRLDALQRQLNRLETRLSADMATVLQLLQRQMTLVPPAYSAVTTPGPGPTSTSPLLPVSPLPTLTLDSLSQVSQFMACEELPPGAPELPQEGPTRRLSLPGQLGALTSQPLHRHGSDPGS
quantity kind: Ki

O=C1CCc2ccc(OCCCCN3CCN(c4cccc5c4ccn5S(=O)(=O)c4ccccc4)CC3)cc2N1; > 10000 nM

Okay, now this molecule:
# input Fetch value of Ki on hERG potassium channels (KCNH2 gene, expressed in CHO cells) (Homo sapiens) for O=C1CCc2ccc(OCCCN3CCN(c4cccc5c4ccn5S(=O)(=O)c4ccccc4)CC3)cc2N1 .
# output > 10000 nM

---

The following molecules are shown together with reported pKi values.
biological target: human recombinant D3 receptors (Homo sapiens); assay: Binding assay, dopaminergic D3 receptor ([3H]methylspiperone); settings: read-out: Inhibition constant Ki D3
Sequence (P35462 whole entry): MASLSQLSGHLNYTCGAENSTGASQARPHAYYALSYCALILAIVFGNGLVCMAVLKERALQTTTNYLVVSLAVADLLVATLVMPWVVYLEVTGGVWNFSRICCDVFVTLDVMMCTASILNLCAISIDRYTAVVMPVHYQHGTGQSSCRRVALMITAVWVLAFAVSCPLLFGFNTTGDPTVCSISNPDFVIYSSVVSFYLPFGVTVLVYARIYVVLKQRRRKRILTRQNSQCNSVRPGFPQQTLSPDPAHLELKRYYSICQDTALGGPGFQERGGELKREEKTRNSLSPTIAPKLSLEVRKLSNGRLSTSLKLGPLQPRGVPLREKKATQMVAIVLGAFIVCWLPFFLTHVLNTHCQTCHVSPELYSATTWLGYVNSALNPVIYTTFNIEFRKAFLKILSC
For clarity, pKi is expressed as the negative log10 of concentration in mol/L.

O=C1CCc2ccc(OCCCCN3CCN(c4cccc5c4ccn5S(=O)(=O)c4ccccc4)CC3)cc2N1; 9.09

Then this molecule:
# input Give the value of pKi reported for the following: O=C1CCc2ccc(OCCCN3CCN(c4cccc5c4ccn5S(=O)(=O)c4ccccc4)CC3)cc2N1
# output 8.47

---

Target: α2C adrenergic receptors, human recombinant (CHO cells) (Homo sapiens)
Sequence (P18825 1-462): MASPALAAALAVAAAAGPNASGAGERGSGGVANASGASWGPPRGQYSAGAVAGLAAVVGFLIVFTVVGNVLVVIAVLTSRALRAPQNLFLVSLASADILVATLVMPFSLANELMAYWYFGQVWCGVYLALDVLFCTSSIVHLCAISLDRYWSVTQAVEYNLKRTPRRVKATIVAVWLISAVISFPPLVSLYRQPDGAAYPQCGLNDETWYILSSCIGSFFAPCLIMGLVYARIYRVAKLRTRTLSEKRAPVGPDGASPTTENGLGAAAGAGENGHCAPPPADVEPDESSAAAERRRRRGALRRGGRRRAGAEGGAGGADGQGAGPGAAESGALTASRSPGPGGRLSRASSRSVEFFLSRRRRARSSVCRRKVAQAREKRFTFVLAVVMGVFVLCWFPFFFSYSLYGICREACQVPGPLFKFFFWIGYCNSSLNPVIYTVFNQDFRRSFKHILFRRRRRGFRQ
Experiment: Binding assay, α2C adrenergic receptor ([3H]RX 821002)
Details: read-out: Inhibition constant Ki α2C
Overview of recorded pKi for various compounds
Recall that pKi is obtained by taking minus log10 of the concentration measured in molar.

O=C1CCc2ccc(OCCCN3CCN(c4cccc5c4ccn5S(=O)(=O)c4ccccc4)CC3)cc2N1; 6.36

# ---- query compound ----
# input Please give the documented pKi of O=C1CCc2ccc(OCCCCN3CCN(c4cccc5c4ccn5S(=O)(=O)c4ccccc4)CC3)cc2N1
# output 6.82
